I'd be grateful if you could share measured IC50 for these entries.
Target: plasma kallikrein (PKa) (Homo sapiens)
Construct: purchased R & D 2497-SE
Sequence (P03952 391-638 limits assumed): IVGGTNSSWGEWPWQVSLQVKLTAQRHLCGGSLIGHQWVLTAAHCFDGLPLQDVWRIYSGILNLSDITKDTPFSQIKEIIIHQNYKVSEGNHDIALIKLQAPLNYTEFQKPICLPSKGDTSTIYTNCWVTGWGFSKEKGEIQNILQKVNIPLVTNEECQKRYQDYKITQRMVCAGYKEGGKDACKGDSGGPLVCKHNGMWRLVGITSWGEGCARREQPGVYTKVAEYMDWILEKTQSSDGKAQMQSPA
Sequence (P03952 20-390 partner limits assumed): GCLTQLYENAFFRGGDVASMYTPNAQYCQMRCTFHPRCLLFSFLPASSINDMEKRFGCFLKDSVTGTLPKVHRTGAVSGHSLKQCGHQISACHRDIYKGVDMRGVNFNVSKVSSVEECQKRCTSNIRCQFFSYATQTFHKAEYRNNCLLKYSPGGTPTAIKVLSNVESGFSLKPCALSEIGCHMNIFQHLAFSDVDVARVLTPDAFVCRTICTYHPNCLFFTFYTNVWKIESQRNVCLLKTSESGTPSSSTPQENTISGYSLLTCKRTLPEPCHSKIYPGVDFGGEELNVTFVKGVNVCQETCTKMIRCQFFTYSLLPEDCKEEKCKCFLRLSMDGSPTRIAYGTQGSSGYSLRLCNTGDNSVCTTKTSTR
Experiment: Inhibitory activity against plasma kallikrein in vitro (fluorescence intensity enzyme assay, Pro-Phe-Arg-AMC substrate)
Assay type: biochemical
Details: plasma kallikrein enzyme assay, Pro-Phe-Arg-AMC substrate; read-out: PKa IC50
Answers are plain numbers, in nM.

Example entries begin here.
- compound: "Cc1cc(N)nc(C)c1CNC(=O)c1ncn(Cc2cc(Cn3ccccc3=O)cs2)n1"
  target.or.system: "plasma kallikrein (PKa) (Homo sapiens)"
  quantitative.result: 3.07
- compound: "COc1ccc(F)c(CNC(=O)c2cn(Cc3ccc(Cn4ccccc4=O)cc3)nc2COCCN(C)C)c1F"
  target.or.system: "plasma kallikrein (PKa) (Homo sapiens)"
  quantitative.result: 1.94
- compound: "COc1ccnc(CNC(=O)c2cn(Cc3ccc(Cn4ccccc4=O)cc3)nc2C(F)(F)F)c1F"
  target.or.system: "plasma kallikrein (PKa) (Homo sapiens)"
  quantitative.result: 3.09

Provide reported IC50 for each item, in the same order as listed.
1. Cc1cc(N)nc(C)c1CNC(=O)c1ncn(Cc2ccc(CN3CCCCC3=O)cc2)n1
2. COc1ccnc(CNC(=O)c2cn(Cc3ccc(Cn4ccccc4=O)cc3)nc2-c2cnc(O)nc2)c1F
3. COc1ccc(F)c(CNC(=O)c2cn(Cc3ccc(Cn4ccccc4=O)cc3)nc2NC2(C)COC2)c1F
4. Cc1cc(N)nc(C)c1CNC(=O)c1cn(Cc2ccc(Cn3ccccc3=O)cc2)nn1
5. COc1ccc(F)c(CNC(=O)c2cn(Cc3ccc(Cn4cc(F)ccc4=O)c(F)c3)nc2C2CC(OC)C2)c1F (stereo not shown)
6. COCc1nn(Cc2cn3cc(C4CC4)ccc3n2)cc1C(=O)NCc1c(C)cc(N)nc1C
7. Nc1noc2ccc(CNC(=O)c3cnn(Cc4ccc(Cn5ccccc5=O)cc4)c3)cc12

3.72
34.5
1.94
0.178
9.15
2.98
0.16

Items follow; give IC50 for each.
1. Nc1ccnc(CNC(=O)c2cn(Cc3ccc(Cn4ccccc4=O)cc3)nc2C2COC2)c1F
2. Cc1cc2nccn2c(C)c1CNC(=O)c1cn(Cc2ccc(Cn3ccccc3=O)cc2)nc1C(F)(F)F

1. 0.6
2. 0.35
